Attribution: patent US5128338A

Each item that follows carries a reported pEC50.
System: porcine coronary
Assay: Porcine coronary relaxation (PGF2α-precontracted coronary segments)
Set-up: species or system pig (Yucatan mini pig)
Settings: Sus scrofa; porcine coronary segments, 37° C., PGF2α 4.10^-6 M; corrected for DMSO; read-out: DE50, effect on coronary tension induced by PGF2α
pEC50: −log10 of the molar value.

Molecule: CCN(CC)C(=O)Cn1c(=O)n2cc(-c3ccc(C)cc3)nc2c2ccccc21 [Example 18]
Comparison Operator: =
pEC50: 6.03
//
Molecule: CCN(CC)C(=O)Cn1c(=O)n2cc(-c3ccc(OC)cc3)nc2c2ccccc21 [Example 17]
Comparison Operator: =
pEC50: 6.35
//
Molecule: CCN(CC)C(=O)Cn1c(=O)n2c(C)c(-c3ccccc3)nc2c2ccccc21 [Example 20]
Comparison Operator: =
pEC50: 6.06
//
Molecule: OCCN(CCO)c1nc(N2CCCCC2)c2nc(N(CCO)CCO)nc(N3CCCCC3)c2n1 [Dipyridamole, dipyridamole, reference compound]
Comparison Operator: =
pEC50: 6.35
//
Molecule: O=C(Cn1c(=O)n2cc(-c3ccccc3)nc2c2ccccc21)N1CCOCC1 [Example 16]
Comparison Operator: =
pEC50: 5.46
//
Molecule: CCOC(=O)Cn1c(=O)n2cc(-c3ccccc3)nc2c2ccccc21 [Example 13]
Comparison Operator: =
pEC50: 5.15
//
Molecule: CCN(CC)C(=O)Cn1c(=O)n2cc(-c3ccccc3)nc2c2ccccc21 [Example 11]
Comparison Operator: =
pEC50: 5.95
//
Molecule: Cn1c(=O)n2cc(-c3ccccc3)nc2c2ccccc21 [Example 29]
Comparison Operator: <
pEC50: 4.00
